Reported Papp A→B at 3 h values for the following compounds.
Procedure Text: Permeability across apical to basolateral side in MDCK cells pgp knock out incubated up to 180 mins by LC_MS/MS analysis
Type: ADME, cell-based, Canis lupus familiaris
Measurement Parameters: dog, read-out: permeability
Measurement Kind: Papp A→B at 3 h (×10⁻⁶ cm/s)

[[record]]
compound = "O=C(NCc1cc[nH]n1)c1ccc([C@H]2[C@@H](F)[C@@H](F)C[C@@H](F)[C@H]2F)cc1"
measurement_kind = "Papp A→B at 3 h"
observed = 2.1

[[record]]
compound = "CN(CCC#N)C(=O)c1ccc(C2CCCCC2)cc1"
measurement_kind = "Papp A→B at 3 h"
observed = 18.7

[[record]]
compound = "O=C(NCc1cc[nH]n1)c1ccc(C2CCCCC2)cc1"
measurement_kind = "Papp A→B at 3 h"
observed = 16.7

[[record]]
compound = "CC(C(=O)Nc1ccc(C2CCCCC2)cc1)n1cncn1 (stereo not given)"
measurement_kind = "Papp A→B at 3 h"
observed = 29.5

[[record]]
compound = "CN1CCN(C(=O)c2ccc(C3CCCCC3)cc2)CC1"
measurement_kind = "Papp A→B at 3 h"
observed = 20.3

[[record]]
compound = "O=C(c1ccc([C@H]2[C@@H](F)[C@@H](F)C[C@@H](F)[C@H]2F)cc1)N1CC(O)C1"
measurement_kind = "Papp A→B at 3 h"
observed = 6.7

[[record]]
compound = "O=C(Cc1cccnc1)Nc1ccc(C2CCCCC2)cc1"
measurement_kind = "Papp A→B at 3 h"
observed = 19.9

[[record]]
compound = "COCCN(C)C(=O)c1ccc([C@H]2[C@@H](F)[C@@H](F)C[C@@H](F)[C@H]2F)cc1"
measurement_kind = "Papp A→B at 3 h"
observed = 9.4

[[record]]
compound = "O=C(c1ccc(C2CCCCC2)cc1)N1CC(O)C1"
measurement_kind = "Papp A→B at 3 h"
observed = 26

[[record]]
compound = "CC(=O)N1CC(C(=O)Nc2ccc([C@H]3[C@@H](F)[C@@H](F)C[C@@H](F)[C@H]3F)cc2)C1"
measurement_kind = "Papp A→B at 3 h"
observed = 0.6

[[record]]
compound = "COCCN(C)C(=O)c1ccc(C2CCCCC2)cc1"
measurement_kind = "Papp A→B at 3 h"
observed = 9.4

[[record]]
compound = "COCCC(=O)Nc1ccc([C@H]2[C@@H](F)[C@@H](F)C[C@@H](F)[C@H]2F)cc1"
measurement_kind = "Papp A→B at 3 h"
observed = 18.1

[[record]]
compound = "CC(C(=O)Nc1ccc([C@H]2[C@@H](F)[C@@H](F)C[C@@H](F)[C@H]2F)cc1)n1cncn1 (stereo not given in full)"
measurement_kind = "Papp A→B at 3 h"
observed = 5.5

[[record]]
compound = "CC(=O)N1CC(C(=O)Nc2ccc(C3CCCCC3)cc2)C1"
measurement_kind = "Papp A→B at 3 h"
observed = 18.7

[[record]]
compound = "CN(C)CCC(=O)Nc1ccc([C@H]2[C@@H](F)[C@@H](F)C[C@@H](F)[C@H]2F)cc1"
measurement_kind = "Papp A→B at 3 h"
observed = 3.7

[[record]]
compound = "CN1CCN(C(=O)c2ccc([C@H]3[C@@H](F)[C@@H](F)C[C@@H](F)[C@H]3F)cc2)CC1=O"
measurement_kind = "Papp A→B at 3 h"
observed = 4.5

[[record]]
compound = "N#CCC(=O)Nc1ccc([C@H]2[C@@H](F)[C@@H](F)C[C@@H](F)[C@H]2F)cc1"
measurement_kind = "Papp A→B at 3 h"
observed = 16

[[record]]
compound = "CN(CCC#N)C(=O)c1ccc([C@H]2[C@@H](F)[C@@H](F)C[C@@H](F)[C@H]2F)cc1"
measurement_kind = "Papp A→B at 3 h"
observed = 8.1

[[record]]
compound = "CN1CCN(C(=O)c2ccc([C@H]3[C@@H](F)[C@@H](F)C[C@@H](F)[C@H]3F)cc2)CC1"
measurement_kind = "Papp A→B at 3 h"
observed = 18.6

[[record]]
compound = "N#CCC(=O)Nc1ccc(C2CCCCC2)cc1"
measurement_kind = "Papp A→B at 3 h"
observed = 18.6

[[record]]
compound = "CN(C)CCC(=O)Nc1ccc(C2CCCCC2)cc1"
measurement_kind = "Papp A→B at 3 h"
observed = 10.8

[[record]]
compound = "CN1CCN(C(=O)c2ccc(C3CCCCC3)cc2)CC1=O"
measurement_kind = "Papp A→B at 3 h"
observed = 10.9

[[record]]
compound = "NC(=O)CCNC(=O)c1ccc([C@H]2[C@@H](F)[C@@H](F)C[C@@H](F)[C@H]2F)cc1"
measurement_kind = "Papp A→B at 3 h"
observed = 0.4

[[record]]
compound = "O=C(NCC1CCOCC1)c1ccc([C@H]2[C@@H](F)[C@@H](F)C[C@@H](F)[C@H]2F)cc1"
measurement_kind = "Papp A→B at 3 h"
observed = 20.3

[[record]]
compound = "NC(=O)CCNC(=O)c1ccc(C2CCCCC2)cc1"
measurement_kind = "Papp A→B at 3 h"
observed = 14.7


Data origin: ChEMBL document CHEMBL5131576
